conditions: in n-butyl acetate, 293.15 K
REPORTED_METRIC: solubility (mole fraction)

INSERT INTO measurements (smiles_str, reported_metric, number) VALUES
  ('Cn1nccc1O', 'solubility (mole fraction)', 0.00216);

* * *

conditions: in ethyl acetate, 298.15 K
REPORTED_METRIC: solubility (mole fraction)

INSERT INTO assay_data (smiles_str, reported_metric, number) VALUES
  ('Cn1nccc1O', 'solubility (mole fraction)', 0.00348);

* * *

details: in n-propanol, 313.15 K
REPORTED_METRIC: solubility (mole fraction)

INSERT INTO assay_data (smiles_str, number) VALUES
  ('Cn1nccc1O', 0.211);

* * *

details: in methanol, 278.15 K
REPORTED_METRIC: solubility (mole fraction)

INSERT INTO measurements (smiles_str, reported_metric, number) VALUES
  ('Cn1nccc1O', 'solubility (mole fraction)', 0.0905);

* * *

settings: in ethyl acetate, 288.15 K
REPORTED_METRIC: solubility (mole fraction)

INSERT INTO results (smiles_str, number) VALUES
  ('Cn1nccc1O', 0.00119);

* * *

settings: in isopropanol, 283.15 K
REPORTED_METRIC: solubility (mole fraction)

INSERT INTO results (smiles_str, reported_metric, number) VALUES
  ('Cn1nccc1O', 'solubility (mole fraction)', 0.0911);

* * *

settings: in n-pentyl acetate, 298.15 K
REPORTED_METRIC: solubility (mole fraction)

INSERT INTO results (smiles_str, number) VALUES
  ('Cn1nccc1O', 0.011);

* * *

settings: in n-pentyl acetate, 293.15 K
REPORTED_METRIC: solubility (mole fraction)

INSERT INTO assay_data (smiles_str, number) VALUES
  ('Cn1nccc1O', 0.0087);

* * *

settings: in isobutanol, 298.15 K
REPORTED_METRIC: solubility (mole fraction)

INSERT INTO results (smiles_str, number) VALUES
  ('Cn1nccc1O', 0.183);

* * *

conditions: in n-propyl acetate, 308.15 K
REPORTED_METRIC: solubility (mole fraction)

INSERT INTO results (smiles_str, number) VALUES
  ('Cn1nccc1O', 0.00511);

* * *

details: in n-propyl acetate, 288.15 K
REPORTED_METRIC: solubility (mole fraction)

INSERT INTO results (smiles_str, result) VALUES
  ('Cn1nccc1O', 0.000774);

* * *

conditions: in n-butanol, 318.15 K
REPORTED_METRIC: solubility (mole fraction)

INSERT INTO measurements (smiles_str, number) VALUES
  ('Cn1nccc1O', 0.231);

* * *

details: in n-butanol, 303.15 K
REPORTED_METRIC: solubility (mole fraction)

INSERT INTO assay_data (smiles_str, reported_metric, number) VALUES
  ('Cn1nccc1O', 'solubility (mole fraction)', 0.159);

* * *

conditions: in sec-butanol, 283.15 K
REPORTED_METRIC: solubility (mole fraction)

INSERT INTO results (smiles_str, reported_metric, result) VALUES
  ('Cn1nccc1O', 'solubility (mole fraction)', 0.101);

* * *

conditions: in n-butanol, 288.15 K
REPORTED_METRIC: solubility (mole fraction)

INSERT INTO measurements (smiles_str, number) VALUES
  ('Cn1nccc1O', 0.105);

* * *

conditions: in sec-butanol, 293.15 K
REPORTED_METRIC: solubility (mole fraction)

INSERT INTO assay_data (smiles_str, reported_metric, number) VALUES
  ('Cn1nccc1O', 'solubility (mole fraction)', 0.135);

* * *

settings: in sec-butanol, 303.15 K
REPORTED_METRIC: solubility (mole fraction)

INSERT INTO results (smiles_str, reported_metric, result) VALUES
  ('Cn1nccc1O', 'solubility (mole fraction)', 0.173);

* * *

details: in n-butanol, 278.15 K
REPORTED_METRIC: solubility (mole fraction)

INSERT INTO measurements (smiles_str, reported_metric, number) VALUES
  ('Cn1nccc1O', 'solubility (mole fraction)', 0.0789);

* * *

settings: in isobutanol, 313.15 K
REPORTED_METRIC: solubility (mole fraction)

INSERT INTO measurements (smiles_str, number) VALUES
  ('Cn1nccc1O', 0.272);

* * *

details: in ethyl acetate, 318.15 K
REPORTED_METRIC: solubility (mole fraction)

INSERT INTO measurements (smiles_str, number) VALUES
  ('Cn1nccc1O', 0.0245);

* * *

settings: in isobutanol, 318.15 K
REPORTED_METRIC: solubility (mole fraction)

INSERT INTO measurements (smiles_str, number) VALUES
  ('Cn1nccc1O', 0.308);

* * *

conditions: in n-butyl acetate, 313.15 K
REPORTED_METRIC: solubility (mole fraction)

INSERT INTO assay_data (smiles_str, reported_metric, result) VALUES
  ('Cn1nccc1O', 'solubility (mole fraction)', 0.00846);

* * *

details: in ethanol, 318.15 K
REPORTED_METRIC: solubility (mole fraction)

INSERT INTO assay_data (smiles_str, reported_metric, number) VALUES
  ('Cn1nccc1O', 'solubility (mole fraction)', 0.247);

* * *

details: in methyl acetate, 308.15 K
REPORTED_METRIC: solubility (mole fraction)

INSERT INTO measurements (smiles_str, number) VALUES
  ('Cn1nccc1O', 0.0217);

* * *

settings: in isopropanol, 303.15 K
REPORTED_METRIC: solubility (mole fraction)

INSERT INTO measurements (smiles_str, reported_metric, number) VALUES
  ('Cn1nccc1O', 'solubility (mole fraction)', 0.162);

* * *

conditions: in n-butyl acetate, 308.15 K
REPORTED_METRIC: solubility (mole fraction)

INSERT INTO measurements (smiles_str, number) VALUES
  ('Cn1nccc1O', 0.00601);

* * *

conditions: in n-butyl acetate, 303.15 K
REPORTED_METRIC: solubility (mole fraction)

INSERT INTO assay_data (smiles_str, result) VALUES
  ('Cn1nccc1O', 0.00433);

* * *

details: in isobutanol, 288.15 K
REPORTED_METRIC: solubility (mole fraction)

INSERT INTO assay_data (smiles_str, result) VALUES
  ('Cn1nccc1O', 0.138);

* * *

settings: in n-propyl acetate, 298.15 K
REPORTED_METRIC: solubility (mole fraction)

INSERT INTO measurements (smiles_str, reported_metric, number) VALUES
  ('Cn1nccc1O', 'solubility (mole fraction)', 0.00218);

* * *

settings: in ethanol, 308.15 K
REPORTED_METRIC: solubility (mole fraction)

INSERT INTO measurements (smiles_str, number) VALUES
  ('Cn1nccc1O', 0.194);

* * *

conditions: in n-propyl acetate, 318.15 K
REPORTED_METRIC: solubility (mole fraction)

INSERT INTO assay_data (smiles_str, reported_metric, number) VALUES
  ('Cn1nccc1O', 'solubility (mole fraction)', 0.0124);

* * *

conditions: in n-pentyl acetate, 308.15 K
REPORTED_METRIC: solubility (mole fraction)

INSERT INTO assay_data (smiles_str, result) VALUES
  ('Cn1nccc1O', 0.0169);

* * *

conditions: in methanol, 303.15 K
REPORTED_METRIC: solubility (mole fraction)

INSERT INTO measurements (smiles_str, number) VALUES
  ('Cn1nccc1O', 0.201);

* * *

settings: in ethanol, 298.15 K
REPORTED_METRIC: solubility (mole fraction)

INSERT INTO assay_data (smiles_str, number) VALUES
  ('Cn1nccc1O', 0.149);

* * *

settings: in n-butyl acetate, 278.15 K
REPORTED_METRIC: solubility (mole fraction)

INSERT INTO measurements (smiles_str, number) VALUES
  ('Cn1nccc1O', 0.000681);

* * *

settings: in isobutanol, 278.15 K
REPORTED_METRIC: solubility (mole fraction)

INSERT INTO results (smiles_str, reported_metric, result) VALUES
  ('Cn1nccc1O', 'solubility (mole fraction)', 0.1);

* * *

conditions: in n-pentyl acetate, 318.15 K
REPORTED_METRIC: solubility (mole fraction)

INSERT INTO measurements (smiles_str, number) VALUES
  ('Cn1nccc1O', 0.0261);

* * *

details: in n-butanol, 283.15 K
REPORTED_METRIC: solubility (mole fraction)

INSERT INTO assay_data (smiles_str, number) VALUES
  ('Cn1nccc1O', 0.09);

* * *

conditions: in ethyl acetate, 278.15 K
REPORTED_METRIC: solubility (mole fraction)

INSERT INTO assay_data (smiles_str, result) VALUES
  ('Cn1nccc1O', 0.000394);

* * *

settings: in n-propyl acetate, 278.15 K
REPORTED_METRIC: solubility (mole fraction)

INSERT INTO assay_data (smiles_str, number) VALUES
  ('Cn1nccc1O', 0.000277);

Where these numbers come from: BigSolDB 2.1
